Tested on: HOP-62
Test: relative viability (nuclei count vs DMSO), 5 days (fraction); higher = more cells survive
Conditions: first compound 0.8 µM
reportedEndpoint: relative viability
Reply: number alone, nothing else.

Recorded results for 8 compounds are shown here.
[[record]]
compound = "Oc1nc(-c2ccc(C(F)(F)F)cc2)nc2c1CSCC2 [XAV939] + N=C(N)NC(=N)NCCc1ccccc1 [Phenformin] (partner 250 µM)"
testvalue = 0.646

[[record]]
compound = "Oc1nc(-c2ccc(C(F)(F)F)cc2)nc2c1CSCC2 [XAV939] + O=C(CCCCCCC(=O)Nc1ccccc1)NO [Vorinostat] (partner 1 µM)"
testvalue = 0.501

[[record]]
compound = "Oc1nc(-c2ccc(C(F)(F)F)cc2)nc2c1CSCC2 [XAV939] + CS(=O)(=O)CCNCc1ccc(-c2ccc3ncnc(Nc4ccc(OCc5cccc(F)c5)c(Cl)c4)c3c2)o1 [Lapatinib] (partner 2 µM)"
testvalue = 0.918

[[record]]
compound = "C=C1C(=O)O[C@@H](CCCCCCCC)[C@@H]1C(=O)O [C-75] + CC1(C)CCC(c2ccc(Cl)cc2)=C(CN2CCN(c3ccc(C(=O)NS(=O)(=O)c4ccc(N[C@H](CCN5CCOCC5)CSc5ccccc5)c(S(=O)(=O)C(F)(F)F)c4)cc3)CC2)C1 [Navitoclax] (partner 0.5 µM)"
testvalue = 1.04

[[record]]
compound = "Oc1nc(-c2ccc(C(F)(F)F)cc2)nc2c1CSCC2 [XAV939] + C[C@@H](Oc1cc(-c2cnn(C3CCNCC3)c2)cnc1N)c1c(Cl)ccc(F)c1Cl [Crizotinib] (partner 1 µM)"
testvalue = 0.906

[[record]]
compound = "Oc1nc(-c2ccc(C(F)(F)F)cc2)nc2c1CSCC2 [XAV939] + CS(=O)(=O)N1CCN(Cc2cc3nc(-c4cccc5[nH]ncc45)nc(N4CCOCC4)c3s2)CC1 [Pictilisib] (partner 1 µM)"
testvalue = 0.596

[[record]]
compound = "Oc1nc(-c2ccc(C(F)(F)F)cc2)nc2c1CSCC2 [XAV939] + COc1cc2c(Oc3ccc(NC(=O)C4(C(=O)Nc5ccc(F)cc5)CC4)cc3F)ccnc2cc1OCCCN1CCOCC1 [Foretinib] (partner 0.25 µM)"
testvalue = 0.996

[[record]]
compound = "C=C1C(=O)O[C@@H](CCCCCCCC)[C@@H]1C(=O)O [C-75] + CS(=O)(=O)CCNCc1ccc(-c2ccc3ncnc(Nc4ccc(OCc5cccc(F)c5)c(Cl)c4)c3c2)o1 [Lapatinib] (partner 2 µM)"
testvalue = 0.955


Okay, now this compound:
Asked: Hi! What's the reported relative viability for Oc1nc(-c2ccc(C(F)(F)F)cc2)nc2c1CSCC2 [XAV939] + CC(=O)c1c(C)c2cnc(Nc3ccc(N4CCNCC4)cn3)nc2n(C2CCCC2)c1=O [Palbociclib] (partner 0.5 µM) on HOP-62?
Given back: 0.378

Origin of values: the supplement of paper PMC10307832
